Test system: human β-hexosaminidase [human placenta] (HexA/B)
method: Determination of IC50 values for inhibition of human β-hexosaminidase
Assay type: biochemical
settings: ratio
measure-name: Selectivity: IC50(human β-hexosaminidase)/IC50(Human OGA)

Answered cases to consult:
CC(C)CNC(=O)C[C@@H]1[C@H](O)[C@H](O)[C@@H](CO)N1CCCc1ccccc1 ... >68.34
CCNC(=O)C[C@H]1N[C@H](CO)[C@@H](O)[C@H]1O ... >234
CCNC(=O)C[C@@H]1[C@@H](O)[C@H](O)[C@@H](CO)N1CCOc1ccc(Cl)cc1Cl ... >585
CCCNC(=O)C[C@H]1N[C@H](CO)[C@@H](O)[C@H]1O ... >555
CNC(=O)C[C@@H]1[C@H](O)[C@H](O)[C@@H](CO)N1CCC1CCCCC1 ... 8142
CCCCCCCCCN1[C@H](CC(=O)NC)[C@H](O)[C@H](O)[C@H]1CO ... >9174

Note to self: Selectivity: IC50(human β-hexosaminidase)/IC50(Human OGA) of "CCCCCCCCCN1[C@H](CC(=O)NC(C)C)[C@H](O)[C@H](O)[C@H]1CO" with human β-hexosaminidase [human placenta] (HexA/B) was >81

Short answer on human β-hexosaminidase [human placenta] (HexA/B) for "CCCCCCN1[C@H](CC(=O)NC2CC2)[C@H](O)[C@H](O)[C@H]1CO" , Selectivity: IC50(human β-hexosaminidase)/IC50(Human OGA): >283

GET /values?item= "CCNC(=O)C[C@H]1N[C@H](CO)[C@@H](O)[C@@H]1O" &system= human β-hexosaminidase [human placenta] (HexA/B) returns Selectivity: IC50(human β-hexosaminidase)/IC50(Human OGA): >728
